System: HOP-92
Experiment: NCI tumour cell line growth inhibition, 48 h
The source made the active and inactive calls. Rule as the data show it: active = GI50 up to about 1.1 µM and inactive = higher.
Possible outcomes: active, inactive

{"molecule": "Cc1cc([C@H](C#N)c2nc3ccccc3[nH]2)nc(Cl)n1", "group.label": "inactive"}
{"molecule": "CC(C)c1cc2c(c(O)c1O)[C@@]1(C(=O)O)CCCC(C)(C)[C@@H]1CC2 [CARNOSIC ACID]", "group.label": "inactive"}
{"molecule": "O=NN(CCCl)C(=O)NC1CCC(CC2CCC(NC(=O)N(CCCl)N=O)CC2)CC1 (stereo not given)", "group.label": "inactive"}
{"molecule": "C=C(C)C(=O)O[C@@H]1C/C(C)=C\\[C@H](OC(C)=O)C[C@](C)(O)/C=C2/OC(=O)C(COC(C)=O)=C21", "group.label": "active"}
{"molecule": "COc1ccc2[nH]c3c(C)c4cc[n+](C)cc4c(C)c3c2c1", "group.label": "inactive"}
{"molecule": "Cc1ccc(C2=Nc3c(N)nc(N)nc3NC(c3ccccc3)C2)cc1 (stereo not given)", "group.label": "inactive"}
{"molecule": "COc1ccc2c(CC(=O)O)cc(=O)oc2c1", "group.label": "inactive"}
{"molecule": "CCOC(=O)c1cc(C2CCN(Cc3ccccc3)C2=O)c(C(=O)/C=C(/C)N)[nH]1 (stereo not given)", "group.label": "inactive"}
{"molecule": "CC(=O)Oc1ccc(C)c2c1[C@H]1CC[C@]3(C)[C@@H](OC(C)=O)CC[C@H]3[C@@H]1CC2", "group.label": "inactive"}
{"molecule": "COc1c(C)c(C/C=C(\\C)CCCCO[Si](c2ccccc2)(c2ccccc2)C(C)(C)C)c(OC)c(OC)c1OC", "group.label": "inactive"}
{"molecule": "COc1cc(C2c3cc4c(cc3OC(NNc3ccccc3)C2C)OCO4)cc(OC)c1O (stereo not given)", "group.label": "inactive"}
{"molecule": "CCc1cc(C)cc2[n+]1CC=C2C.[O-][Cl+3]([O-])([O-])[O-]", "group.label": "inactive"}
{"molecule": "COC(=O)C1=C(C)N(NC(=O)c2ccccc2)C2(O)CCCC(=O)C12C (stereo not given)", "group.label": "inactive"}
{"molecule": "CN1c2ccccc2C2c3c(O)ccc(O)c3C=C([N+](=O)[O-])C21 (stereo not given)", "group.label": "inactive"}
{"molecule": "Oc1c(Br)c(-c2ccccc2)nc2ccccc12", "group.label": "inactive"}
{"molecule": "Nc1ccccc1CCCC(=O)O", "group.label": "inactive"}
{"molecule": "Cc1[nH]n(-c2ncc(C(=O)O)c(=O)[nH]2)c(=O)c1CCO", "group.label": "inactive"}
{"molecule": "CC(=O)OCc1ncccc1C(OC(C)=O)OC(C)=O", "group.label": "inactive"}
{"molecule": "O=C1c2cc(I)ccc2N2CCN=C2N1Cc1ccccc1", "group.label": "inactive"}
{"molecule": "C=CCNc1ccc(C)cc1", "group.label": "inactive"}
